Sourced from ChEMBL document CHEMBL3885861

# Species: Rattus norvegicus
# protocolText: Open TG-GATES - Regimen: Daily Repeat
# Type: toxicity, organism-based, Sprague-Dawley
# Set-up: regimen Daily Repeat, gender Male, age 6 weeks
# assayContext: in vivo, po, 0 mg/kg, […], tissue Plasma, route gavage, dose level Control, time 28 day
Each entry below carries its reported TC.
Expressed in mg/dL, but write only the number.

{"compound": "Clc1c(Cl)c(Cl)c(Cl)c(Cl)c1Cl", "measuredQuantity": "TC", "reportedValue": 77}
{"compound": "CC(CN1c2ccccc2Sc2ccccc21)N(C)C (centres undefined)", "measuredQuantity": "TC", "reportedValue": 65.8}
{"compound": "CCOC(=O)[C@H](CCc1ccccc1)N[C@@H](C)C(=O)N1CCC[C@H]1C(=O)O", "measuredQuantity": "TC", "reportedValue": 66.4}

Let us examine a further case.
Field TC (entry CN(C)[C@@H]1C(O)=C(C(N)=O)C(=O)[C@@]2(O)C(O)=C3C(=O)c4c(O)cccc4[C@@](C)(O)[C@H]3C[C@@H]12 ) reads 78.2

---

# TERMINAL_BW listing for each entry below
# Organism: Rattus norvegicus
# protocolText: Open TG-GATES - Regimen: Single
# Format: toxicity, organism-based, Sprague-Dawley
# Design: regimen Single, gender Male, age 6 weeks
# assayContext: in vivo, po, 0 mg/kg, 9 h, route gavage, dose level Control
Number in g, nothing else.

{"compound": "C1CCC(C(CC2CCCCN2)C2CCCCC2)CC1 (stereo unspecified)", "TERMINAL_BW (g)": 206.4}

The reported TERMINAL_BW of the compound CN1C(C(=O)Nc2ccccn2)=C(O)c2sc(Cl)cc2S1(=O)=O was 218.6

CCOC(=O)[C@H](CCc1ccccc1)N[C@@H](C)C(=O)N1CCC[C@H]1C(=O)O has a reported TERMINAL_BW of 215

Reported TERMINAL_BW for CN(C)[C@@H]1C(O)=C(C(N)=O)C(=O)[C@@]2(O)C(O)=C3C(=O)c4c(O)cccc4[C@@](C)(O)[C@H]3C[C@@H]12 was 179.4

Value of TERMINAL_BW reported for the compound Clc1c(Cl)c(Cl)c(Cl)c(Cl)c1Cl is 215.4

Field TERMINAL_BW (entry CC(CN1c2ccccc2Sc2ccccc21)N(C)C (stereo unspecified) ) reads 207.6

---

Form field: KIDNEY_TOTAL (one value per entry).
# Organism: Rattus norvegicus
# protocolText: Open TG-GATES - Regimen: Daily Repeat
# Assay type: toxicity, organism-based, Sprague-Dawley
# Set-up: regimen Daily Repeat, gender Male, age 6 weeks
# assayContext: in vivo, po, 0 mg/kg, […], tissue Kidney, route gavage, dose level Control, time 7 day
Form entry: value (g) — number only.

{"compound": "Cc1cccc(Nc2ccccc2C(=O)O)c1C", "unitTag": "g", "reportedValue": 2.2}
{"compound": "CC(=O)Nc1nnc(S(N)(=O)=O)s1 [ACETAZOLAMIDE]", "unitTag": "g", "reportedValue": 2.1}
{"compound": "C#C[C@]1(O)CC[C@H]2[C@@H]3CCC4=Cc5oncc5C[C@]4(C)[C@H]3CC[C@@]21C", "unitTag": "g", "reportedValue": 2.3}
{"compound": "CCOC(=O)[C@H](CCc1ccccc1)N[C@@H](C)C(=O)N1CCC[C@H]1C(=O)O", "unitTag": "g", "reportedValue": 2.4}

Now let's try a different one.
Memo: CN(C)[C@@H]1C(O)=C(C(N)=O)C(=O)[C@@]2(O)C(O)=C3C(=O)c4c(O)cccc4[C@@](C)(O)[C@H]3C[C@@H]12 , reported KIDNEY_TOTAL: 2
